# EXPERIMENTAL_SYSTEM: P2X7 receptor (Homo sapiens)
# Construct: host or cells: THP-1 cells differentiated with LPS and IFN-γ
# Sequence (Q99572 whole entry): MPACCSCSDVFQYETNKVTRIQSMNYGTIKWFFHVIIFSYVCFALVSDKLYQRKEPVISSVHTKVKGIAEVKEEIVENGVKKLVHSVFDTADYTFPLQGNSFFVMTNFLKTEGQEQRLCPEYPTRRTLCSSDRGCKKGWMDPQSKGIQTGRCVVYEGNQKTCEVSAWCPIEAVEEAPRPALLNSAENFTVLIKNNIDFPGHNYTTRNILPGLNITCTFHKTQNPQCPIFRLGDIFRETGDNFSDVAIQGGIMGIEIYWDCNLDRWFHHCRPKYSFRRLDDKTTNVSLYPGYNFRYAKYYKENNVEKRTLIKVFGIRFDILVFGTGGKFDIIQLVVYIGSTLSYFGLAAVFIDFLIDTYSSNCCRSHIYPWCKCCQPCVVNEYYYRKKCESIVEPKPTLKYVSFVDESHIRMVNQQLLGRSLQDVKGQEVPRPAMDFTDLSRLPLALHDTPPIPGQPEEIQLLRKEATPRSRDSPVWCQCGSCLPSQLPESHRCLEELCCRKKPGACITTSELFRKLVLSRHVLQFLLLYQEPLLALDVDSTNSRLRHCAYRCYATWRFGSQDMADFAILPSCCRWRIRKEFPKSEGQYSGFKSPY
# PROCEDURE_TEXT: IL-1β release assay in differentiated THP-1 cells stimulated with BzATP (Example 9)
# Assay type: cell-based
# COND: 0.1 μM compound (symbols *); differentiated THP-1 cells, BzATP 250 uM; read-out: IL-1β % Inhib. @ 0.3 or 0.1 uM
Some compounds, each annotated with its measured inhibition at 0.1 µM.

Here are 5 compounds together with their reported answers.
COMPOUND: COc1ccc(OC)c(CC(=O)Nc2cccc3c(=O)n(C(C)CO)ccc23)c1 (stereo not drawn)
EXPERIMENTAL_SYSTEM: P2X7 receptor (Homo sapiens)
MEASURED_VALUE: 0 to 25%
//
COMPOUND: COc1ccc(OC)c(CC(=O)Nc2cccc3c(=O)n(CC(C)O)ccc23)c1 (stereo not drawn)
EXPERIMENTAL_SYSTEM: P2X7 receptor (Homo sapiens)
MEASURED_VALUE: 26 to 50%
//
COMPOUND: COc1ccc(CCC(=O)Nc2cccc3c(=O)n(CC(C)O)ccc23)cc1 (stereo not drawn)
EXPERIMENTAL_SYSTEM: P2X7 receptor (Homo sapiens)
MEASURED_VALUE: 26 to 50%
//
COMPOUND: CC(O)Cn1ccc2c(NC(=O)c3cc4ccccc4o3)cccc2c1=O (stereo not drawn)
EXPERIMENTAL_SYSTEM: P2X7 receptor (Homo sapiens)
MEASURED_VALUE: 0 to 25%
//
COMPOUND: Cc1cccc(C(=O)Nc2cccc3c(=O)n(CC(C)O)ccc23)c1 (stereo not drawn)
EXPERIMENTAL_SYSTEM: P2X7 receptor (Homo sapiens)
MEASURED_VALUE: 0 to 25%

Write down the reported inhibition at 0.1 µM of COc1ccc(C(=O)Nc2cccc3c(=O)n(CC(C)O)ccc23)c(C)c1 (stereo not drawn) , test system: P2X7 receptor (Homo sapiens).
0 to 25%

Write down the reported inhibition at 0.1 µM of CC(O)Cn1ccc2c(NC(=O)CCc3ccccc3Cl)cccc2c1=O (stereo not drawn) , test system: P2X7 receptor (Homo sapiens).
26 to 50%

Write down the reported inhibition at 0.1 µM of COc1ccccc1CC(=O)Nc1cccc2c(=O)n(CC(C)O)ccc12 (stereo not drawn) , test system: P2X7 receptor (Homo sapiens).
0 to 25%

Write down the reported inhibition at 0.1 µM of CC(O)Cn1ccc2c(NC(=O)CCc3ccc4c(c3)OCO4)cccc2c1=O (stereo not drawn) , test system: P2X7 receptor (Homo sapiens).
0 to 25%

----------
# PROCEDURE_TEXT: Pharmacokinetic evaluation following intravenous and oral administration in rats (oral bioavailability)
# Format: in vivo, rat
# COND: male Sprague-Dawley rats, PO 1 to 5 mg/kg vs IV 1 mg/kg, AUCinf dose-normalized
TEST_READOUT: Oral Bioavailability F (%)

Here are 6 compounds together with their reported answers.
STRUCTURE_STRING: C[C@@H](C(N)=O)n1ccc2c(NC(=O)Cc3ccc(Cl)c(C(F)(F)F)c3)cccc2c1=O
Oral Bioavailability F (%): + (0-25% F)

STRUCTURE_STRING: C[C@H](CO)n1ccc2c(NC(=O)Cc3ccc(Cl)c(F)c3)c(Cl)ccc2c1=O
Oral Bioavailability F (%): +++ (51-75% F)

STRUCTURE_STRING: O=C(CCc1cc(C(F)(F)F)ccc1C(F)(F)F)Nc1cccc2c(=O)n(CCO)ccc12
Oral Bioavailability F (%): + (0-25% F)

STRUCTURE_STRING: C[C@H](CO)n1ccc2c(NC(=O)Cc3ccc(C(F)(F)F)cc3F)cccc2c1=O
Oral Bioavailability F (%): ++++ (>75% F)

STRUCTURE_STRING: O=C(Cc1ccc(C(F)(F)F)c(F)c1)Nc1cccc2c(=O)n(CCO)ccc12
Oral Bioavailability F (%): ++++ (>75% F)

STRUCTURE_STRING: O=C(Cc1ccc(C(F)(F)F)c(F)c1)Nc1c(Cl)ccc2c(=O)n(CCO)ccc12
Oral Bioavailability F (%): ++++ (>75% F)

Now look at this one.
Fill blank: measured Oral Bioavailability F (%) of the compound C[C@H](CO)n1ccc2c(NC(=O)Cc3ccc(F)c(C(F)(F)F)c3)c(Cl)ccc2c1=O is ____.
+++ (51-75% F)
